Biological target: BTK recombinant protein (Homo sapiens (Human))
Assay: Determination of biochemical BTK (Z'-LYTE kinase assay)
READOUT LABEL: IC50 (nM)

Solved cases (3 shown):
C[C@H]1CN(C2COC2)CCN1c1ccc(Nc2cc(-c3ccnc(-n4ccn5c6c(cc5c4=O)CC(C)(C)C6)c3C=O)cn(C)c2=O)nc1
58
CC(C)n1cc(Nc2cc(-c3ccnc(-n4ccn5c6c(cc5c4=O)CC(C)(C)C6)c3CO)cn(C)c2=O)cn1
80
CN(c1ccc(Nc2cc(-c3ccnc(-n4ncn5c6c(cc5c4=O)CC(C)(C)C6)c3CO)cn(C)c2=O)nc1)C1COC1
12

[1] CC1CCc2cc3c(=O)n(-c4nccc(-c5cc(Nc6ccc(N7CCN(C8COC8)C[C@@H]7C)cn6)c(=O)n(C)c5)c4CO)ccn3c2C1 (mixture of isomers)
[2] CCn1cc(-c2ccnc(-n3ncn4c5c(cc4c3=O)CC(C)(C)C5)c2CO)cc(Nc2ccc(N3CCN(C4COC4)C[C@@H]3C)cn2)c1=O
[3] Cn1cc(-c2ccnc(-n3ccn4c5c(cc4c3=O)CCC5)c2CO)cc(Nc2cc3n(n2)CCN(C#N)C3)c1=O
q: Ascending by IC50, please: list the compounds accordingly. # output: labels, in the requested order
a: 1, 2, 3

###

Target: phosphorylated BTK in Ramos cells (Homo sapiens (Human), UniProt Q06187)
Sequence (Q06187 whole entry): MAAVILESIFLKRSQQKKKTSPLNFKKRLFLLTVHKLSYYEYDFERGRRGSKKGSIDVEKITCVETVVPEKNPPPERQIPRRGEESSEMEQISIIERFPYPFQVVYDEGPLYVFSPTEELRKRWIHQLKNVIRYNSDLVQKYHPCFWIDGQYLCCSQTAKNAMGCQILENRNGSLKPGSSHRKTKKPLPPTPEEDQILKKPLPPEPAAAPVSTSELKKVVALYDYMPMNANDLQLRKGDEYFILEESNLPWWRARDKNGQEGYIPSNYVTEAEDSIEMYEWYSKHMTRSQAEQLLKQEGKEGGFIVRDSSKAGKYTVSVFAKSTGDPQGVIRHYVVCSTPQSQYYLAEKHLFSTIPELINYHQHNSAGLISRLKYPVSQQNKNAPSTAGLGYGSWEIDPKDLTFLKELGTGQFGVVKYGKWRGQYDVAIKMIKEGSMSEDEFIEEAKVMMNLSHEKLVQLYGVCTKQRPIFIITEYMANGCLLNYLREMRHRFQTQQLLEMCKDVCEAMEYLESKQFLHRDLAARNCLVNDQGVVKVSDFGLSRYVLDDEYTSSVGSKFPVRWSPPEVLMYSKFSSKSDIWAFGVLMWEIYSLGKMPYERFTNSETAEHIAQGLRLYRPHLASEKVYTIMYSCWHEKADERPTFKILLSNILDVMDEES
Test: Determination of phosphorylated BTK in Ramos cells (BTK phospho-Y223 HTRF)
Details: anti-human IgM + hydrogen peroxide stimulation
pIC50: −log10 of the molar value.
READOUT LABEL: pIC50

CC1(C)Cc2cc3c(=O)n(-c4nccc(-c5cc(Nc6cc7n(n6)CCNC7)c6ncnn6c5)c4CO)ccn3c2C1
8.40
COCCN1CCn2nc(Nc3cc(-c4ccnc(-n5ccn6c7c(cc6c5=O)CC(C)(C)C7)c4CO)cn(C)c3=O)cc2[C@H]1C
8.15

[A] C[C@@H]1CN(c2ccc(Nc3cc(-c4ccnc(-n5ccn6c(c(F)c7ccccc76)c5=O)c4CO)cn(C)c3=O)nc2)[C@@H](C)CN1C1COC1
[B] Cn1cc(-c2ccnc(-n3ccn4c5c(cc4c3=O)CC(C)(C)C5)c2CO)cc(Nc2ccc(N3CCC4(CCOC4)CC3)cn2)c1=O
[C] C[C@H]1CN(C2COC2)CCN1c1cnc(Nc2cc(-c3ccnc(-n4ccn5c6c(cc5c4=O)CC(C)(C)C6)c3CO)cn(C)c2=O)nc1
[D] CN(c1ccc(Nc2cc(-c3ccnc(-n4ccn5c6c(cc5c4=O)CC(C)(C)C6)c3CO)cn(C)c2=O)nc1)C1COC1
q: Sort these compounds on pIC50 so the largest reading comes first. Lab note: final answer is the ordered label list.
a: A, D, B, C

###

Assay: Study on in vivo pharmacokinetics in mice
Details: mouse; male ICR mice, oral (intragastric) administration, 10 mg/kg, plasma
Protocol: Example 6 Study on In Vivo Pharmacokinetics in Mice […] The plasma samples were pre-treated and then analyzed by liquid chromatography-tandem mass spectrometry (LC-MS/MS), the instrument model was API5500. […] The concentrations of the compound in the samples were determined as follows. […] The sample concentrations were calculated by measuring the peak area ratio of the compound of the test sample to the internal standard according to the standard curve.
READOUT LABEL: AUC(0-inf) (ng·h/mL)

[P] C[C@H]1CN(C2COC2)CCN1c1ccc(Nc2cc(-c3ccnc(N4CCn5c(cc6c5CC(C)(C)C6)C4=O)c3CO)cn(C)c2=O)nc1 [GDC-0853, fenebrutinib, reference compound]
[Q] C[C@H]1CN(C2COC2)CCN1c1ccc(Nc2cc(-c3ccnc(-n4ccn5c6c(cc5c4=O)CC(C)(C)C6)c3CO)cn(C)c2=O)nc1
q: Lower value of AUC(0-inf) belongs to which: P or Q ? Reply with the label of the item you choose.
a: P

###

Target: BTK recombinant protein (Homo sapiens (Human))
Experiment: Determination of biochemical BTK (Z'-LYTE kinase assay)
pIC50: −log10 of the molar value.
READOUT LABEL: pIC50

Some solved entries appear below for comparison.
COCCN1CCn2nc(Nc3cc(-c4ccnc(-n5cnn6c7c(cc6c5=O)CCCC7)c4CO)cn(C)c3=O)cc2C1
7.19
CN(c1ccc(Nc2cc(-c3ccnc(-n4ccn5c6c(cc5c4=O)CC(C)(C)C6)c3CO)cn(C)c2=O)nc1)C1COC1
7.92
Cn1cc(-c2ccnc(-n3ccn4c5c(cc4c3=O)CC(C)(C)C5)c2CO)cc(Nc2ccc(N3C4CC3CN(C3COC3)C4)cn2)c1=O
7.66
Cn1cc(-c2ccnc(-n3ccn4c5c(c(F)c4c3=O)CCCC5)c2CO)cc(Nc2ccc(N3CCN(C4COC4)CC3(C)C)cn2)c1=O
7.96

[P] Cn1cc(-c2ccnc(-n3ccn4c5c(cc4c3=O)CC(C)(C)C5)c2CO)cc(Nc2cc3n(n2)CCN(C#N)C3)c1=O
[Q] Cn1cc(-c2ccnc(-n3ccn4c5c(cc4c3=O)CCC5)c2CO)cc(Nc2cc3n(n2)CCN(C2COC2)C3)c1=O
q: Which value of pIC50 is numerically greater: that of P or that of Q ? Field: selected label. Fill in the label of the entry you choose.
a: P

[A] C[C@H]1CN(C2COC2)CCN1c1ccc(Nc2cc(-c3ccnc(-n4ccn5c(cc6ccccc65)c4=O)c3CO)nn(C)c2=O)nc1
[B] Cn1cc(-c2ccnc(-n3ncn4c5c(cc4c3=O)CC(C)(C)C5)c2CO)cc(Nc2cc3n(n2)CCN(C#N)C3)c1=O
[C] CC[C@H]1CN(C2COC2)CCN1c1ccc(Nc2cc(-c3ccnc(-n4ccn5c6c(cc5c4=O)CC(C)(C)C6)c3CO)cn(C)c2=O)nc1
q: Highest pIC50 first, then in falling order down to the smallest. Enter labels, ranked according to the request.
a: B, C, A
(B: 8.40, C: 7.77, A: 6.91)

[a] Cc1cc(Nc2cc(-c3ccnc(-n4ccn5c6c(cc5c4=O)CC(C)(C)C6)c3CO)cn(C)c2=O)no1
[b] COC1CN(c2ccc(Nc3cc(-c4ccnc(-n5ccn6c7c(cc6c5=O)CC(C)(C)C7)c4CO)cn(C)c3=O)nn2)C1
[c] C[C@H]1CN(C2COC2)CCN1c1ccc(Nc2cc(-c3ccnc(-n4ccn5c(cc6cccc(F)c65)c4=O)c3CO)cn(C)c2=O)nc1
q: Rank ascending by pIC50. List labels; respect the requested ordering.
a: c, a, b
(c: 7.74, a: 7.96, b: 8.22)

###

Molecular target: BTK recombinant protein (Homo sapiens (Human), UniProt Q06187)
Sequence (Q06187 whole entry): as above
Assay: Determination of biochemical BTK (Z'-LYTE kinase assay)
From the text: Example 2 Determination of Biochemical BTK 1. Reagents and Materials BTK recombinant protein: Invitrogen, Cat #PV3363; Z′-LYTE® kinase test kit-tyrosine 1 peptide: Invitrogen, Cat #PV3190; Z′-LYTE® biochemical assay employs a fluorescence resonance energy transfer (FRET)—based, coupled-enzyme format and is based on the differential sensitivity of phosphorylated and non-phosphorylated peptides to proteolytic cleavage. […]
pIC50: −log10 of the molar value.
READOUT LABEL: pIC50

Consider the worked cases shown below.
COCCN1CCN(c2ccc(Nc3cc(-c4ccnc(-n5ncn6c7c(cc6c5=O)CC(C)(C)C7)c4CO)cn(C)c3=O)nc2)C(C)(C)C1 [Compound 220]
8.30
C[C@H]1CN(C2COC2)CCN1c1ccc(Nc2cc(-c3ccnc(-n4ncn5c(cc6ccccc65)c4=O)c3CO)cn(C)c2=O)nc1 [Compound 151]
8.70
CC(=O)N1CCn2nc(Nc3cc(-c4ccnc(-n5ccn6c7c(cc6c5=O)CC(C)(C)C7)c4CO)cn(C)c3=O)cc2C1 [Compound 68]
8.30
C[C@H]1CN(C(CO)CO)CCN1c1ccc(Nc2cc(-c3ccnc(-n4ccn5c6c(cc5c4=O)CC(C)(C)C6)c3CO)cn(C)c2=O)nc1 [Compound 185]
7.89

[P] Cc1cc(Nc2cc(-c3ccnc(-n4ncn5c6c(cc5c4=O)CC(C)(C)C6)c3CO)cn(C)c2=O)no1 [Compound 192]
[Q] COC1CN(c2ccc(Nc3cc(-c4ccnc(-n5ccn6c7c(cc6c5=O)CC(C)(C)C7)c4CO)cn(C)c3=O)nc2)C1 [Compound 35]
q: Compare the recorded pIC50 of P and Q ; state which is larger. Could you answer with the label of the item you picked?
a: P

###

Target: phosphorylated BTK in Ramos cells (Homo sapiens (Human))
Assay: Determination of phosphorylated BTK in Ramos cells (BTK phospho-Y223 HTRF)
Settings: anti-human IgM + hydrogen peroxide stimulation
pIC50: −log10 of the molar value.
READOUT LABEL: pIC50

The following compounds have reported results that may help.
C[C@@H]1CN(c2ccc(Nc3cc(-c4ccnc(-n5ccn6c(c(F)c7cc(F)ccc76)c5=O)c4CO)cn(C)c3=O)nc2)[C@@H](C)CN1C1COC1
8.70
Cn1cc(-c2ccnc(-n3ccn4c(c(F)c5ccccc54)c3=O)c2CO)cc(Nc2cc3n(n2)CCN(C2COC2)C3)c1=O
7.92
Cn1cc(-c2ccnc(-n3ccn4c5c(c(F)c4c3=O)CCCC5)c2CO)cc(Nc2cc3n(n2)CCOC3)c1=O
7.80
COCCN1CCn2nc(Nc3cc(-c4ccnc(-n5ccn6c7c(cc6c5=O)CC(C)(C)C7)c4CO)cn(C)c3=O)cc2C1
8.70
Cn1cc(-c2ccnc(-n3ccn4c5c(cc4c3=O)CC(C)(C)C5)c2CO)cc(Nc2ccc(C3CCN(C4COC4)CC3)nn2)c1=O
7.68
Cn1cc(-c2ccnc(-n3ccn4c5c(cc4c3=O)CC(C)(C)C5)c2CO)cc(NC(=O)C2CC2)c1=O
8.10

[1] Cn1cc(-c2ccnc(-n3ccn4c5c(cc4c3=O)CC(C)(C)C5)c2CO)cc(Nc2ccc(N3CCC4(CC3)COC4)cn2)c1=O
[2] Cn1cc(-c2ccnc(-n3ccn4c5c(cc4c3=O)CC(C)(C)C5)c2CO)cc(Nc2ccc(NC3CCCOC3)cn2)c1=O (centres unmarked)
q: Hi, I'm comparing two records. Which one has the lower pIC50, 1 or 2 ? Selection: enter the item's label.
a: 1
(1: 8.00, 2: 8.30)

[P] Cc1c(-c2cc(Nc3ccc(N4CCN(C5COC5)C[C@@H]4C)cn3)c(=O)n(C)c2)ccnc1-n1ccn2c3c(cc2c1=O)CC(C)(C)C3
[Q] CN1CCN(C(=O)c2ccc(Nc3cc(-c4ccnc(-n5ccn6c7c(cc6c5=O)CC(C)(C)C7)c4CO)cn(C)c3=O)nc2)CC1
[R] C[C@H]1CN(C2COC2)CCN1c1ccc(Nc2cc(-c3ncnc(-n4ccn5c6c(cc5c4=O)CC(C)(C)C6)c3CO)cn(C)c2=O)nc1
[S] Cn1cc(-c2ccnc(-n3ncn4c5c(cc4c3=O)CCCC5)c2CO)cc(Nc2cc3n(n2)CCN(C2COC2)C3)c1=O
[T] C[C@H]1CN(C2COC2)CCN1c1ccc(Nc2cc(-c3ccnc(-n4ccn5c6c(cc5c4=O)CC(C)(C)C6O)c3CO)cn(C)c2=O)nc1 (mixture of isomers)
q: I would appreciate it if you could sort these 5 compounds by pIC50, starting from the smallest number. Provide your answer as the labels ordered per the instruction.
a: S, T, P, Q, R
